# assay target: UniProt:P15692
# protocol conditions: ITC, 20 °C, 50 mM HEPES/NaOH, 150 mM NaCl, pH 7.5; first binding site; calculated from ΔG and ΔH (Eq. 2); 95 % confidence interval in brackets
Where a SMILES comes first, the peptide text is derived from it. Bridges are numbered along the chain shown (N, C = ends). [ ]: non-standard residue; d: D form. Nle = CCCC[C@H](N)C(=O)O
endpoint label: −TΔS

Which measured −TΔS value corresponds to CCCC[C@@H]1NC(=O)[C@H](C(C)C)NC(=O)[C@H](Cc2c[nH]cn2)NC(=O)[C@H]([C@@H](C)CC)NC(=O)[C@H](CC(=O)O)NC(=O)[C@@H](N)CSSC[C@@H]2NC(=O)[C@H](CCCCNC(=O)CC[C@@H](C(=O)N[C@@H](CC(C)C)C(N)=O)NC(=O)[C@H](CCC(=O)O)NC(=O)[C@H](Cc3ccccc3)NC2=O)NC(=O)[C@H](Cc2c[nH]c3ccccc23)NC(=O)[C@H](CCC(=O)O)NC(=O)[C@H](Cc2c[nH]c3ccccc23)NC1=O [4 c] (H-CDIHV[Nle]WEWKCFEEL-NH2; disulfide 1-11; lactam 10-14) ?
6.8 [6.1; 7.6] kcal⋅mol^−1

====

So I've got a bunch of molecules here, and I need their ΔCp values.
# assay target: VEGF (Homo sapiens, UniProt P15692)
# Sequence (P15692 219-313): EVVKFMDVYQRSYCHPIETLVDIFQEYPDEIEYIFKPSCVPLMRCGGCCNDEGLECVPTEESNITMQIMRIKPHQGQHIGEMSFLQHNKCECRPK
# protocol conditions: ITC; heat capacity change on binding from ΔH at 20 °C and 37 °C (Eq. 3); 95 % confidence interval in brackets
Where a SMILES comes first, the peptide text is derived from it. Bridges are numbered along the chain shown (N, C = ends). [ ]: non-standard residue; d: D form. Nle = CCCC[C@H](N)C(=O)O

Which measured ΔCp value corresponds to CCCC[C@@H]1NC(=O)[C@H](C(C)C)NC(=O)[C@H](Cc2c[nH]cn2)NC(=O)[C@H]([C@@H](C)CC)NC(=O)[C@H](CC(=O)O)NC(=O)[C@@H](N)CSSC[C@@H](C(=O)N[C@@H](Cc2ccccc2)C(=O)N[C@@H](CCC(=O)O)C(=O)N[C@@H](CCC(=O)O)C(=O)N[C@@H](CC(C)C)C(N)=O)NC(=O)[C@H](CCCCN)NC(=O)[C@H](Cc2c[nH]c3ccccc23)NC(=O)[C@H](CCC(=O)O)NC(=O)[C@H](Cc2c[nH]c3ccccc23)NC1=O [compound 4] (H-CDIHV[Nle]WEWKCFEEL-NH2; disulfide 1-11) ?
−0.33 [−0.38; −0.28] kcal⋅mol^−1.K^−1

Which measured ΔCp value corresponds to CCCC[C@@H]1NC(=O)[C@H](C(C)C)NC(=O)[C@H](Cc2c[nH]cn2)NC(=O)[C@H]([C@@H](C)CC)NC(=O)[C@H](CC(=O)O)NC(=O)[C@@H](N)CSSC[C@@H]2NC(=O)[C@H](CCCCNC(=O)CC[C@@H](C(=O)N[C@@H](CC(C)C)C(N)=O)NC(=O)[C@H](CCC(=O)O)NC(=O)[C@H](Cc3ccccc3)NC2=O)NC(=O)[C@H](Cc2c[nH]c3ccccc23)NC(=O)[C@H](CCC(=O)O)NC(=O)[C@H](Cc2c[nH]c3ccccc23)NC1=O [4 c] (H-CDIHV[Nle]WEWKCFEEL-NH2; disulfide 1-11; lactam 10-14) ?
−0.37 [−0.43; −0.31] kcal⋅mol^−1.K^−1

Which measured ΔCp value corresponds to CCCC[C@@H]1NC(=O)[C@H](C(C)C)NC(=O)[C@H](Cc2c[nH]cn2)NC(=O)[C@H]([C@@H](C)CC)NC(=O)[C@H](CC(=O)O)NC(=O)[C@@H](N)CSSC[C@@H](C(=O)N[C@@H](Cc2ccccc2)C(=O)N[C@@H](CCC(=O)O)C(=O)N[C@@H](CC(=O)O)C(=O)N[C@@H](CC(C)C)C(N)=O)NC(=O)[C@H](CCCCN)NC(=O)[C@H](Cc2c[nH]c3ccccc23)NC(=O)[C@H](CCC(=O)O)NC(=O)[C@H](Cc2c[nH]c3ccccc23)NC1=O [compound 1] (H-CDIHV[Nle]WEWKCFEDL-NH2; disulfide 1-11) ?
−0.29 [−0.32; −0.26] kcal⋅mol^−1.K^−1

====

# assay target: VEGF (Homo sapiens, UniProt P15692)
# protocol conditions: ITC, 37 °C, 50 mM HEPES/NaOH, 150 mM NaCl, pH 7.5; first binding site; calculated from ΔG and ΔH (Eq. 2); 95 % confidence interval in brackets
Where a SMILES comes first, the peptide text is derived from it. Bridges are numbered along the chain shown (N, C = ends). [ ]: non-standard residue; d: D form. Nle = CCCC[C@H](N)C(=O)O
endpoint label: −TΔS

Which measured −TΔS value corresponds to `CCCC[C@@H]1NC(=O)[C@H](C(C)C)NC(=O)[C@H](Cc2c[nH]cn2)NC(=O)[C@H]([C@@H](C)CC)NC(=O)[C@H](CC(=O)O)NC(=O)[C@@H](N)CSSC[C@@H]2NC(=O)[C@H](CCC(=O)NCCCC[C@@H](C(=O)N[C@@H](CC(C)C)C(N)=O)NC(=O)[C@H](CCC(=O)O)NC(=O)[C@H](Cc3ccccc3)NC2=O)NC(=O)[C@H](Cc2c[nH]c3ccccc23)NC(=O)[C@H](CCC(=O)O)NC(=O)[C@H](Cc2c[nH]c3ccccc23)NC1=O` ?
12.8 [12.3; 13.2] kcal⋅mol^−1

Which measured −TΔS value corresponds to CCCC[C@@H]1NC(=O)[C@H](C(C)C)NC(=O)[C@H](Cc2c[nH]cn2)NC(=O)[C@H]([C@@H](C)CC)NC(=O)[C@H](CC(=O)O)NC(=O)[C@@H](N)CSSC[C@@H]2NC(=O)[C@H](CCCCNC(=O)CC[C@@H](C(=O)N[C@@H](CC(C)C)C(N)=O)NC(=O)[C@H](CCC(=O)O)NC(=O)[C@H](Cc3ccccc3)NC2=O)NC(=O)[C@H](Cc2c[nH]c3ccccc23)NC(=O)[C@H](CCC(=O)O)NC(=O)[C@H](Cc2c[nH]c3ccccc23)NC1=O [4 c] (H-CDIHV[Nle]WEWKCFEEL-NH2; disulfide 1-11; lactam 10-14) ?
13.5 [12.5; 14.7] kcal⋅mol^−1

Which measured −TΔS value corresponds to CCCC[C@@H]1NC(=O)[C@H](C(C)C)NC(=O)[C@H](Cc2c[nH]cn2)NC(=O)[C@H]([C@@H](C)CC)NC(=O)[C@H](CC(=O)O)NC(=O)[C@@H](N)CSSC[C@@H](C(=O)N[C@@H](Cc2ccccc2)C(=O)N[C@@H](CCC(=O)O)C(=O)N[C@@H](CCC(=O)O)C(=O)N[C@@H](CC(C)C)C(N)=O)NC(=O)[C@H](CCCCN)NC(=O)[C@H](Cc2c[nH]c3ccccc23)NC(=O)[C@H](CCC(=O)O)NC(=O)[C@H](Cc2c[nH]c3ccccc23)NC1=O [compound 4] (H-CDIHV[Nle]WEWKCFEEL-NH2; disulfide 1-11) ?
14.3 [13.5; 15.1] kcal⋅mol^−1

====

# assay target: UniProtKB P15692
# protocol conditions: ITC, 37 °C, 50 mM HEPES/NaOH, 150 mM NaCl, pH 7.5; first binding site; normalised on reverse titrations; 95 % confidence interval in brackets
Where a SMILES comes first, the peptide text is derived from it. Bridges are numbered along the chain shown (N, C = ends). [ ]: non-standard residue; d: D form. Nle = CCCC[C@H](N)C(=O)O
endpoint label: ΔH

Which measured ΔH value corresponds to `CCCC[C@@H]1NC(=O)[C@H](C(C)C)NC(=O)[C@H](Cc2c[nH]cn2)NC(=O)[C@H]([C@@H](C)CC)NC(=O)[C@H](CC(=O)O)NC(=O)[C@@H](N)CSSC[C@@H](C(=O)N[C@@H](Cc2ccccc2)C(=O)N[C@@H](CCC(=O)O)C(=O)N[C@@H](CCCCN)C(=O)N[C@@H](CC(C)C)C(N)=O)NC(=O)[C@H](CC(=O)O)NC(=O)[C@H](Cc2c[nH]c3ccccc23)NC(=O)[C@H](CCC(=O)O)NC(=O)[C@H](Cc2c[nH]c3ccccc23)NC1=O` ?
−22.0 [−22.6; −21.5] kcal⋅mol^−1

Which measured ΔH value corresponds to CCCC[C@@H]1NC(=O)[C@H](C(C)C)NC(=O)[C@H](Cc2c[nH]cn2)NC(=O)[C@H]([C@@H](C)CC)NC(=O)[C@H](CC(=O)O)NC(=O)[C@@H](N)CSSC[C@@H]2NC(=O)[C@H](CCCCNC(=O)CC[C@@H](C(=O)N[C@@H](CC(C)C)C(N)=O)NC(=O)[C@H](CCC(=O)O)NC(=O)[C@H](Cc3ccccc3)NC2=O)NC(=O)[C@H](Cc2c[nH]c3ccccc23)NC(=O)[C@H](CCC(=O)O)NC(=O)[C@H](Cc2c[nH]c3ccccc23)NC1=O [4 c] (H-CDIHV[Nle]WEWKCFEEL-NH2; disulfide 1-11; lactam 10-14) ?
−22.2 [−23.2; −21.3] kcal⋅mol^−1

Measured values drawn from paper PMC9543606 for this set.
